- ASSAY_NAME: Permeability of the compound at pH 7.4 after 30 mins by PAMPA
- Type: ADME
- SETTINGS: read-out: permeability
Entries and their Papp at 0.5 h
Numbers only; they are read as ×10⁻⁶ cm/s.

Worked cases, Papp at 0.5 h given:
>  <MOL>
Cc1cc(C)cc(Cc2ccc3c(NCCCNCc4ccc5c(c4)OCO5)ccnc3c2)c1

>  <Papp at 0.5 h (×10⁻⁶ cm/s)>
23

$$$$
>  <MOL>
COc1cccc(CNCCCNc2ccnc3cc(Cc4ccc(C#N)cc4)ccc23)c1O

>  <Papp at 0.5 h (×10⁻⁶ cm/s)>
23

$$$$
>  <MOL>
c1coc(CNCCCNc2ccnc3cc(CC4CCCCC4)ccc23)c1

>  <Papp at 0.5 h (×10⁻⁶ cm/s)>
23

$$$$

Kindly consider the entry below.
Query: Bench note: what Papp at 0.5 h did `COc1cccc(CNCCCNc2ccnc3cc(Oc4cccc(N(C)C)c4)ccc23)c1O` show?
Result: 317

---

- ASSAY_NAME: Ratio of EC50 for human HepG2 cells to EC50 for Plasmodium falciparum 3D7 infected in human erythrocytes
QUANTITY_KIND: Ratio EC50
Returns: the value as a bare number; no unit string appended.

Query: Bench note: what Ratio EC50 did `COc1cccc(CNCCCNc2ccnc3cc(Oc4ccc(C(C)(C)C)cc4)ccc23)c1O` show?
Result: 28

Query: Bench note: what Ratio EC50 did `COc1ccc(F)cc1CNCCCNc1ccnc2cc(Cc3cc(C)cc(C)c3)ccc12` show?
Result: 27.4

Query: Bench note: what Ratio EC50 did `COc1cccc(Oc2ccc3c(NCCCNCc4ccc5c(c4)OCO5)ccnc3c2)c1` show?
Result: 1178

Query: Bench note: what Ratio EC50 did `COc1cccc(CNCCCNc2ccnc3cc(Cc4ccccc4)ccc23)c1O` show?
Result: 328.6

Query: Bench note: what Ratio EC50 did `COc1ccc(Oc2ccc3c(NCCCNCc4cccc(OC)c4O)ccnc3c2)cc1` show?
Result: 1347

---

- ASSAY_NAME: Permeability of the compound at pH 7.4 after 30 mins by PAMPA
- Assay type: ADME
- SETTINGS: read-out: permeability
QUANTITY_KIND: Papp at 0.5 h (×10⁻⁶ cm/s)
Numbers only; they are read as ×10⁻⁶ cm/s.

Worked cases, Papp at 0.5 h given:
>  <MOL>
COc1ccc(F)cc1CNCCCNc1ccnc2cc(Oc3ccc(C(C)(C)C)cc3)ccc12

>  <ENDPOINT_UNIT>
×10⁻⁶ cm/s

>  <Papp at 0.5 h>
317

$$$$
>  <MOL>
c1cc(NCCCNCc2ccc3c(c2)OCO3)c2ccc(C3CCCCC3)cc2n1

>  <ENDPOINT_UNIT>
×10⁻⁶ cm/s

>  <Papp at 0.5 h>
23

$$$$
>  <MOL>
COc1cccc(CNCCCNc2ccnc3cc(Cc4cc(C)cc(C)c4)ccc23)c1O

>  <ENDPOINT_UNIT>
×10⁻⁶ cm/s

>  <Papp at 0.5 h>
23

$$$$
>  <MOL>
COc1cccc(CNCCCNc2ccnc3cc(-c4cccc5ccccc45)ccc23)c1O

>  <ENDPOINT_UNIT>
×10⁻⁶ cm/s

>  <Papp at 0.5 h>
237

$$$$

Kindly consider the entry below.
Query: Bench note: what Papp at 0.5 h did `COc1ccc(F)cc1CNCCCNc1ccnc2cc(-c3ccc(F)cc3)ccc12` show?
Result: 237
